target: acetylcholine receptor; assay: SPR, receptor immobilized on CM5 chip, peptide 10 uM
Provide the reported Binding affinity (RU) of each item.
// units = RU; emit number, no label

For this binder ( RRLRYR [6mer-1-279] ), measured Binding affinity (RU) is 145

For this binder ( RKLQCK [6mer-1-280] ), measured Binding affinity (RU) is 149

For this binder ( RQYCRR [6mer-2-443] ), measured Binding affinity (RU) is 122

For this binder ( RRQVSK [6mer-1-271] ), measured Binding affinity (RU) is 122

For this binder ( KVVRKR [6mer-2-432] ), measured Binding affinity (RU) is 148
